value.type: IC50 (nM)
# number only, unit nM dropped from output

Entry "COc1cc2ncnc(Nc3ccc(F)c(Cl)c3)c2cc1N1CCOCC1" under Epidermal growth factor receptor (Homo sapiens, UniProt P00533, L858R) had IC50 of 1.5

Record "COc1cc2ncnc(Nc3cccc(Cl)c3F)c2cc1C(=O)N1CCOCC1" / Epidermal growth factor receptor (Homo sapiens, UniProt P00533, L858R), IC50 recorded as 166

Known value: Epidermal growth factor receptor (Homo sapiens, UniProt P00533, L858R) IC50 of the compound "COc1cc2ncnc(Nc3cccc(Cl)c3F)c2cc1OC(=O)N1CCN(C)[C@H](C)C1" equals 21.5

Epidermal growth factor receptor (Homo sapiens, UniProt P00533, L858R) IC50 of "COc1cc2ncnc(Nc3cccc(Cl)c3F)c2cc1OC(=O)N1CCN(C)[C@@H](C)C1" is 16.9

# "COc1cc2ncnc(Nc3cccc(Cl)c3F)c2cc1OC(=O)N1CCN(C)CC1" with Epidermal growth factor receptor (Homo sapiens, UniProt P00533, L858R): IC50 is 5

Sample "COc1cc2ncnc(Nc3cccc(Cl)c3F)c2cc1OC(=O)N1CC[C@@H](N(C)C)C1" , system: Epidermal growth factor receptor (Homo sapiens, UniProt P00533, L858R). Its IC50 is 1.1

"COc1cc2ncnc(Nc3cccc(Cl)c3F)c2cc1OC(=O)N1CCOCC1" on Epidermal growth factor receptor (Homo sapiens, UniProt P00533, L858R) gives IC50 = 4.1

Given the compound "COc1cc2ncnc(Nc3cccc(Cl)c3F)c2cc1N1CCOCC1" and test system Epidermal growth factor receptor (Homo sapiens, UniProt P00533, L858R), the measured IC50 is 1.5

IC50 value, target or system Epidermal growth factor receptor (Homo sapiens, UniProt P00533, L858R), for "COc1cc2ncnc(Nc3cccc(Cl)c3F)c2cc1CN1CCOCC1" : 6.6

Sample "COc1cc2ncnc(Nc3cccc(Cl)c3F)c2cc1OC(=O)N1C[C@@H]2C[C@H]1CN2C" , system: Epidermal growth factor receptor (Homo sapiens, UniProt P00533, L858R). Its IC50 is 2.3

// IC50 (Epidermal growth factor receptor (Homo sapiens, UniProt P00533, L858R)) for "COc1cc2ncnc(Nc3cccc(Cl)c3F)c2cc1OC(=O)N1CC[C@H](N(C)C)C1" = 2.7
